Experimental Details: HUVEC growth inhibition – cell-based, human, primary screen (AID 575);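 also: 100% = median of untreated cell wells with 0.1% DMSO on each plate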
Experimental Context: HUVEC proliferation, CellTiter-Glo luminescence, 72 h; at 10 µM
Activity calls are given as the source filed them.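 The calls were made as follows: active = viability at or below 30% in both replicate assays; inconclusive = viability at or below 30% in just one of the two assays; inactive = the rest.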
Classes used: active, inactive

Compound	Group
CC(C)CCNC(=O)NC(=O)CSc1nnc(-c2ccccc2F)n1N	inactive
CCCCn1c(NC(=O)CC)c(C#N)c2nc3ccccc3nc21	inactive
COc1ccc(OC)c(Nc2nc(-c3sc(N)nc3C)cs2)c1	inactive
O=C(NCCC1=CCCCC1)C1CCN(S(=O)(=O)c2cnc[nH]2)CC1	inactive
CC12CCC(C(=O)O)(c3nc(C#N)c(C#N)nc31)C2(C)C (stereo not given)	inactive
Cn1c(Cc2ccccc2)nnc1SCC(=O)N1CCOCC1	inactive
O=C1CC(c2ccco2)CC(O)=C1C=NCC1NCCc2ccccc21 (stereo not given)	inactive
CN(C)S(=O)(=O)c1ccc(S(=O)(=O)N(Cc2ccco2)Cc2ccccc2Cl)cc1	inactive
CCCn1cnc2c(cnn2-c2ccc(F)cc2)c1=O	inactive
Cc1cc(C)nc(SCc2nnc(SCC(=O)Nc3ncc(C)s3)n2Cc2ccco2)n1	inactive
Cc1ccc2nc(-c3ccccn3)cc(C(=O)N3CCN(c4ncccn4)CC3)c2c1	inactive
COc1ccccc1-c1nc(C(F)(F)F)c(OC)o1	inactive
c1ccc(OCCCn2nnc(-c3ccncc3)n2)cc1	inactive
COc1cccc(N2CCN(c3ncnc4c3[nH]c3ccc(F)cc34)CC2C)c1 (stereo not given)	active
CCOC(=O)C1CCCN(c2c(Nc3ccc(C)c(C)c3)c(=O)c2=O)C1 (stereo not given)	inactive
c1ccc(Cc2nn3c(Cn4cnc5ccccc54)nnc3s2)cc1	inactive
O=C(NCc1ccccc1)c1cc(-c2ccco2)on1	inactive
COc1ccc(C2(C(=O)Nc3c(C)n(C)n(-c4ccccc4)c3=O)CCCC2)cc1OC	inactive
CCCCOC(=O)CSc1nc2c(cc1C#N)C(=O)CC(C)(C)C2	inactive
COC(=O)C1=C(C)NC(C)=C(C(=O)OC)C1c1ccccc1[N+](=O)[O-]	inactive
CC(CN1CCCCC1)OC(=O)c1ccc2c(c1)OCO2 (stereo not given)	inactive
O=C(CCCN1C(=O)c2ccccc2C1=O)N1CCC(c2ccccc2)C1 (stereo not given)	inactive
COC(=O)c1ccc2c(=O)n(NC(C)=O)c(=S)[nH]c2c1	inactive
CC(C)c1nc(N2CCN(C(=O)c3ccco3)CC2)c2c3c(sc2n1)CCCC3	inactive
COc1ccc(C(=O)NC(=O)CSc2nnc(-c3ccco3)n2-c2ccccc2)cc1	inactive
Cn1c(=O)[nH]c(=O)c2c1nc(N1CCNCC1)n2Cc1cccc2ccccc12	inactive
COCCN(CCOC)C(=O)CCn1c(=O)oc2ccccc21	inactive
Cc1c(C)c2cc(Cl)c(O)c(CN3CCCCC3)c2oc1=O	inactive
Cc1cc(C)nc(N(C#N)CC(=O)N2CCC(C(N)=O)CC2)n1	inactive
COc1ccc2c(c1)c1c(n2C(C)=O)C(OC(C)=O)=NCC1	inactive
COC(=O)c1c(NC(=O)CSc2nnnn2C)sc(C)c1C	inactive
CC(NCCc1ccc(O)cc1)C(O)c1ccc(O)cc1 (stereo not given)	inactive
CCOC(=O)c1sc2nc(SCC#N)n(CCCN3CCCC3=O)c(=O)c2c1C	inactive
CC(=O)N1CCN(c2ccc(NC(=O)c3ccc(C(C)(C)C)cc3)cc2)CC1	inactive
Cc1nc2ccc(S(=O)(=O)NCC(=O)N3CCc4ccccc4C3)cc2s1	inactive
Cn1c(-c2ccc(F)cc2)cnc1NCc1ccccc1	inactive
O=C(Nc1sc2c(c1C(=O)NCc1ccco1)CCCC2)c1ccc2c(c1)OCO2	inactive
O=C(NCCN1CCCCC1)c1ccc(=O)oc1	inactive
Cc1nc2sccn2c(=O)c1CCN1CCC(=C(c2ccc(F)cc2)c2ccc(F)cc2)CC1	active
COc1ccc(CCNS(=O)(=O)c2ccc3c(c2)CCN3C(=O)CCC(=O)O)cc1OC	inactive
COc1ccc(OCCOC(=O)c2cccc(-n3cnnn3)c2)cc1	inactive
CN(C(=O)c1ccncc1)C1CC(C)(C)N(O)C(C)(C)C1	inactive
COc1oc(-c2ccccc2)nc1C(F)(F)F	inactive
O=C(Cn1ccc2ccccc2c1=O)NCCC(=O)N1CCN(C2CCCCC2)CC1	inactive
C=CCn1c(COc2cccc(C)c2)nnc1SCC(=O)NC(=O)NCc1ccco1	inactive

* * *

Experimental Details: growth suppression of yeast trafficking mutant, preliminary HTS, modulators of trafficking downstream of Golgi apparatus project, 1536-format plate, OD 615 nm (AID 637)
Experimental Context: yeast transport mutant growth, absorbance 615 nm, 18 h
Activity calls are given as the source filed them. Rule as the data show it: active = inhibition above about 30%; inactive = the rest.
Outcome codes: active, inactive

Molecule	Group
CC(CN1CCOCC1)(NS(=O)(=O)c1ccccc1)c1ccccc1 (stereo unspecified)	inactive
Cc1ccc(C2C(C(=O)c3sc(C)nc3C)=C(O)C(=O)N2CCN(C)C)o1 (stereo unspecified)	inactive
CC(C)C(C(=O)Nc1ccc2c(c1)OCO2)N1C(=O)c2ccccc2C1=O (stereo unspecified)	inactive
COC(=O)Cc1cc(=O)n(-c2ccccc2)[nH]1	inactive
CC1CCN(C(=S)c2ccccc2O)CC1	inactive
COC(=O)c1ccccc1NC(=O)c1cnc2sccn2c1=O	inactive
CN=C(Nc1ccc2c(c1)OCO2)SC1CC(=O)N(c2ccccc2)C1=O (stereo unspecified)	inactive
Cc1c(NC(=O)Cn2nc(C(=O)O)c3ccccc3c2=O)c(=O)n(-c2ccccc2)n1C	inactive
CCC(C)NCC(O)COCc1ccc(Cl)cc1 (stereo unspecified)	inactive
Cc1cnc(C(=O)Nc2nnc(C(C)C)s2)cn1	inactive
COc1ccc(N2C(=O)c3cccc4cccc(c34)C2=O)nn1	inactive
CC(=O)c1c(C)[nH]c(C(=O)NC2=NCCS2)c1C	inactive
COc1ccc(S(=O)(=O)Nc2ccc(Cl)cn2)c(C)c1C	inactive
Nc1nc(SCc2ccc(Cl)cc2Cl)n[nH]1	inactive
Nc1nnnn1NCc1cccc(OCc2ccccc2)c1	inactive
CCOC(=O)c1cccc(NC(=O)CSc2nnc(-c3cccnc3)n2C)c1	inactive
COc1cccc(Cn2c(-c3nonc3N)nc3ccccc32)c1	inactive
O=C(NCCCN1CCCC1=O)c1cccnc1	inactive
N#Cc1ccccc1Cn1c(=O)n(Cc2ccc(C(=O)NCc3ccco3)cc2)c(=O)c2sccc21	inactive
CCOC(=O)CSc1nnc2n1C(C)(C)Cc1ccccc1-2	inactive
Cn1c(=O)[nH]c(=O)c2c1nc(N1CCCCCC1)n2CCCSc1nc2ccccc2o1	inactive
COc1cc(C2c3c(oc4c(C)cc(C)cc4c3=O)C(=O)N2Cc2cccnc2)ccc1O (stereo unspecified)	inactive
COC(=O)CCN(C(=O)c1ccc2c(c1)OCO2)c1ccccn1	inactive
CC(C)C[C@H](NC(=O)Nc1cccc(C(F)(F)F)c1)C(=O)O	inactive
Cc1sc2ncnc(SCC(=O)N3CCCC3)c2c1C	inactive
CC1(C)Cc2noc(N)c2C(C)(C)N1OC(=O)c1cccs1	inactive
CCOC(=O)CSc1nnc(CNC(=O)c2ccc(OC)c(OC)c2)n1C	inactive
COCCCC/C(=N\OCCN)c1ccc(C(F)(F)F)cc1	inactive
Cc1ccccc1CN1CCN(CC(=O)NCc2ccco2)C1=O	inactive
CCOC(=O)N1CCC(N(C(=O)Nc2cccc(OC)c2)C(C)CC)CC1 (stereo unspecified)	inactive
CCOC(=O)c1ccc(NC(=O)CSC2=NC(=O)C(CC)C(=O)N2)cc1 (stereo unspecified)	inactive
CN(C(=O)c1ccc(S(=O)(=O)NC2CCCC2)cc1)C1CCCCC1	inactive
CC1CCN(S(=O)(=O)c2ccc(Br)s2)CC1	inactive
Cc1ccc(N2CCN(CCc3nc4cc(NS(C)(=O)=O)ccc4n3C)CC2)cc1	inactive
CCNc1oc(COc2ccccc2F)nc1C#N	inactive
O=C(Oc1cc2oc(=O)c3c(c2cc1Cl)CCCC3)c1ccco1	inactive
O=S(=O)(c1cccs1)N1CCN(Cc2nc3ccccc3s2)CC1	active
CCC1CCCCN1C(=O)CSc1nnc(-c2ccco2)o1 (stereo unspecified)	inactive
Cc1ccc(CSc2nc3c(c(=O)[nH]2)C(c2ccncc2)C2=C(CCCC2=O)N3)cc1 (stereo unspecified)	inactive
COC(=O)CS(=O)(=O)c1nnc([C@H](Cc2ccccc2)NC(=O)OC(C)(C)C)o1	inactive
Cc1n[nH]c(C)c1S(=O)(=O)Nc1ccc2c(c1)OCCO2	inactive
Cc1ccc(-c2nc3cc(NC(=O)C(C)C)ccc3o2)cc1C	inactive
Cc1cccc(C)c1NC(=O)c1cc(S(=O)(=O)N2CCOCC2)ccc1F	inactive
O=S(=O)(c1ccc2c(c1)OCCO2)N1CCN(Cc2ccc3c(c2)OCO3)CC1	inactive
COC(=O)c1c(NC(=O)CCc2ccc(C)o2)sc(C)c1C	inactive
CCOc1ccccc1-n1c(SCC(=O)NC(C)CC)nnc1-c1ccoc1C (stereo unspecified)	inactive

* * *

Experimental Details: HUVEC growth inhibition – cell-based, human, primary screen (AID 575);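 also: 100% = median of untreated cell wells with 0.1% DMSO on each plate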
Experimental Context: HUVEC proliferation, CellTiter-Glo luminescence, 72 h; at 10 µM; hits give low values

Compound	viability [%]
CCOC(=O)c1ccccc1NC1c2ccccc2C(=O)N1C1CCN(C(=O)OCC)CC1 (stereo unspecified)	76.2
COC(=O)c1c(N)sc(C(=O)N2CCOCC2)c1C	95.2
O=C(NCc1ccccc1)N[C@@H](Cc1ccccc1)C(=O)O	106
O=C(NCCN1CCOCC1)c1ccc(CS(=O)(=O)Cc2ccccc2F)o1	102
CCOC(=O)N1CCC(NC(=O)c2ccc3c(c2)sc2nc(-c4cccc(OC)c4)cn23)CC1	52
COC(=O)c1sc(S(=O)(=O)N2CCN(c3ccccc3)CC2)c(C(=O)OC)c1C	96.1
Cc1cc(=O)[nH]c(SCC(=O)NCc2ccco2)n1	88.6
Nc1nnc(SCC(=O)N2CCN(c3ccccc3)CC2)n1-c1ccccc1	80.6
COc1cccc(CC(NC(C)=O)C(=O)NC2CCN(c3c4c(nc5ncnn35)CCC4)CC2)c1 (stereo unspecified)	90.4
c1ccc(Cn2nnnc2C(c2ccccn2)N2CCOCC2)cc1 (stereo unspecified)	107
CC(C)n1nnnc1SCC(=O)Nc1ccccc1N1CCOCC1	98.4
